Target: hNav1.6 (Homo sapiens (Human), UniProt Q9UQD0)
Sequence (Q9UQD0 whole entry): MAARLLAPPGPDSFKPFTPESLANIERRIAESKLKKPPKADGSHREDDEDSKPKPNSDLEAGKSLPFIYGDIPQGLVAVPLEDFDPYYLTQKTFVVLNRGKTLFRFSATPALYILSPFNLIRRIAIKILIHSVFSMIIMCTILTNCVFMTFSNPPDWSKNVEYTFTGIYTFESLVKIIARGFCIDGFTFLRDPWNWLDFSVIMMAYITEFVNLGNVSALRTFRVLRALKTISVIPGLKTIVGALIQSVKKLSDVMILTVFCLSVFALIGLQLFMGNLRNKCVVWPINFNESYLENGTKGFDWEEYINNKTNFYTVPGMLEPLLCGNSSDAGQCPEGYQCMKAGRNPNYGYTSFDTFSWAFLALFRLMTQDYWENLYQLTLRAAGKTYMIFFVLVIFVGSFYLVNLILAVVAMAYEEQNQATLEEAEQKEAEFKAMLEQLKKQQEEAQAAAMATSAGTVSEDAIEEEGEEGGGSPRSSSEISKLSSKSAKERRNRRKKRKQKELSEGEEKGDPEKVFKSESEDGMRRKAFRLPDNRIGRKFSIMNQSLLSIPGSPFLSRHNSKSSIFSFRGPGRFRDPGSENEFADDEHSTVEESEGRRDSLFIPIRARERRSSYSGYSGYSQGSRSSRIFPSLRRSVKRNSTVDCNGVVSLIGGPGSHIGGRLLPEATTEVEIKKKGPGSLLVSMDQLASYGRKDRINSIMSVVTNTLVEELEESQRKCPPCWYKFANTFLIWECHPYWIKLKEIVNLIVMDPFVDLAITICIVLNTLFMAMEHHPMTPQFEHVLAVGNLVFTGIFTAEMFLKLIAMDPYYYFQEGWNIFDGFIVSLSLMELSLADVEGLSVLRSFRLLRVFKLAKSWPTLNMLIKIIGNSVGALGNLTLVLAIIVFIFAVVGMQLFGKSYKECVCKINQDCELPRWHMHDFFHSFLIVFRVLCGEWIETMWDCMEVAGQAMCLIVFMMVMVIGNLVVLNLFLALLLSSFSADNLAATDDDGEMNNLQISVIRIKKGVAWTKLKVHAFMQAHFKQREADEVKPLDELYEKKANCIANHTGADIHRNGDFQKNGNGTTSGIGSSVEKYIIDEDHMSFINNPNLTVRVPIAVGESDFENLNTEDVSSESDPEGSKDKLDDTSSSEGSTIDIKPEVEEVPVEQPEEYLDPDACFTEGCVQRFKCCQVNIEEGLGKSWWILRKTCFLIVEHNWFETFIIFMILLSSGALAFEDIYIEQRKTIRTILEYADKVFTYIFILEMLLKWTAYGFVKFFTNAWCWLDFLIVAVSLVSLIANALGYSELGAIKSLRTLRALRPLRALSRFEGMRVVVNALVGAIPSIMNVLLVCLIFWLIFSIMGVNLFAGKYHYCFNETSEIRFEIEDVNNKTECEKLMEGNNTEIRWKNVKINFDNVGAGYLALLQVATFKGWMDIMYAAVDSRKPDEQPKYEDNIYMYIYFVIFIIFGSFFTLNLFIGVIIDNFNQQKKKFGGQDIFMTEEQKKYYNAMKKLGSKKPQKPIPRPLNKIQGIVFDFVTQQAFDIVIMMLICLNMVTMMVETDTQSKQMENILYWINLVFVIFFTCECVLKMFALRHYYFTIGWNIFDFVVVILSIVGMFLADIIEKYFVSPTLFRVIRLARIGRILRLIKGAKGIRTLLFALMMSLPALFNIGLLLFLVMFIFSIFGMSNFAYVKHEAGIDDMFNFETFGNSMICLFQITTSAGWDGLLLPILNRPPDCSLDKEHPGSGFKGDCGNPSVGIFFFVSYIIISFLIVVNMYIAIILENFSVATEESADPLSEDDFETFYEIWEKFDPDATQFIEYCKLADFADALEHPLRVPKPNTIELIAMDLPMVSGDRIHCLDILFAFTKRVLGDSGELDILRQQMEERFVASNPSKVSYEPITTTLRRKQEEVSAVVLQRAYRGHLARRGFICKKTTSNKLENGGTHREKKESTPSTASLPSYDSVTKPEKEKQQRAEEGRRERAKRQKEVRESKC
Test: Automated patch clamp (IonWorks Quattro) block of hNav1.6 channels in CHO cells
Assay type: cell-based
Conditions: 10 Hz frequency-dependent block (TP11), read-out: IC50 Nav1.6 10 Hz block
From the text: FIG. 1 depicts the voltage sequence used to measure inhibitory activity of compounds as described in Example 3. An automated patch clamp screening assay was used to measure the inhibitory effect (potency) of compounds in three conformational states of the sodium channel: (1) the tonic state (TP1); (2) the frequency-dependent (10 Hz) state (TP11) and (3) the inactivated state (TP12). […]
measure_name: pIC50
The quantity pIC50 is defined as the negative base-10 logarithm of the molar concentration.

GET /values?readout=pIC50&system=hNav1.6 (Homo sapiens (Human), UniProt Q9UQD0)&item= `Cc1cccc(C)c1OCCCNCc1ccccc1C(F)(F)F` 5.39

Now the same for Cc1cccc(C)c1OCCCNC(C)c1ccccc1 (centres unmarked) 6.00

Now the same for `Cc1cccc(C)c1OCCCNCc1ccc(C(F)(F)F)cc1` 5.33

Now the same for `Cc1cccc(C)c1OCCCNCc1nn(Cc2ccccc2)c2ccccc12` 3.85

Now the same for `Cc1cccc(C)c1OCCCNC(c1ccccn1)c1ccccn1` 5.89

====

molecular target: hNav1.6 (Homo sapiens (Human), UniProt Q9UQD0); assay: Automated patch clamp (IonWorks Quattro) block of hNav1.6 channels in CHO cells; type: cell-based; settings: 10 Hz frequency-dependent block (TP11), read-out: IC50 Nav1.6 10 Hz block
I'd appreciate it if you could supply pIC50 values for the items below.
The quantity pIC50 is defined as the negative base-10 logarithm of the molar concentration.

Need pIC50, item `COc1cccc(CNCCCOc2c(C)cccc2C)c1` 5.49

Now the same for `Cc1cccc(C)c1OCCCNCc1ccc(OC(F)(F)F)cc1` 4.25

Now the same for `Cc1cccc(C)c1OCCCNCc1ccccc1` 5.54

====

molecular target: hNav1.6 (Homo sapiens (Human)); assay: Automated patch clamp (IonWorks Quattro) block of hNav1.6 channels in CHO cells; format: cell-based; conditions: Tonic block (TP1), read-out: IC50 Nav1.6 Tonic block
measure_name: pIC50
The quantity pIC50 is defined as the negative base-10 logarithm of the molar concentration.

GET /values?readout=pIC50&system=hNav1.6 (Homo sapiens (Human))&item= Cc1cccc(C)c1OCCCNC(C)c1ccccc1 (centres unmarked) 5.80

Now the same for `Cc1cccc(C)c1OCCCNCc1ccccc1-c1ccccc1` 4.67

Now the same for `Cc1cccc(C)c1OCCCNCc1cccc(-c2cncnc2)c1` 6.40

Now the same for `Cc1cccc(C)c1OCCCNCc1ccc(OC(F)(F)F)cc1` 3.86

Now the same for `COc1ccc(CNCCCOc2c(C)cccc2C)cc1` 5.31

Now the same for `Cc1cccc(C)c1OCCCNCc1ccccc1F` 5.25

Now the same for `Cc1cccc(C)c1OCCCNCc1ccccc1` 5.28

Now the same for `Cc1cccc(C)c1OCCCNCc1cccc(F)c1` 5.51

Now the same for `COc1ccccc1CNCCCOc1c(C)cccc1C` 5.54

====

biological target: hNav1.6 (Homo sapiens (Human)); assay: Automated patch clamp (IonWorks Quattro) block of hNav1.6 channels in CHO cells; type: cell-based; conditions: Tonic block (TP1), read-out: IC50 Nav1.6 Tonic block
pIC50: −log10 of the molar value.
measure_name: pIC50

Need pIC50, item `Cc1n[nH]c(C)c1OCCCNCc1cccc(-c2cncnc2)c1` < 5.00

Now the same for `Cc1cccc(C)c1OCCCNCc1ccc(S(N)(=O)=O)cc1` < 5.00

Now the same for `Cc1cccc(C)c1OCCCNCc1cccc(-c2ccc(F)cc2)c1` < 4.52

Now the same for `Cc1cccc(C)c1OCCCNCc1ccc(-c2ccccc2)cc1` < 3.00

Now the same for `Cc1cccc(C)c1OCCCNCc1noc(C(C)C)n1` < 5.00

Now the same for `Cc1cccc(C)c1OCCCNCc1ccccn1` < 5.00

Now the same for `Cc1nn(C)c(C)c1OCCCNCc1cccc(-c2cncnc2)c1` < 5.00

Now the same for `Cc1cccc(C)c1OCCCNC(c1ccccn1)c1ccccn1` < 4.52

Now the same for `Cc1cccc(C)c1OCCCNCc1nn(Cc2ccccc2)c2ccccc12` 3.54

Now the same for `Cc1cccc(C)c1OCCCNCc1ccc(O)cc1` < 5.00

Now the same for `Cc1nn(C)c(C)c1OCCCNC(c1ccccn1)c1ccccn1` < 5.00

Now the same for `Cc1cccc(C)c1OCCCNCc1cccc(-c2ccccc2F)c1` < 4.52

Now the same for `COc1cccc(CNCCCOc2c(C)cccc2C)c1` 5.10

Now the same for `Cc1cccc(C)c1OCCCNCc1cc(C(C)(C)C)cc(C(C)(C)C)c1` < 5.00

Now the same for `Cc1cccc(C)c1OCCCNCc1ccc(F)cc1` 5.35

Now the same for `Cc1cccc(C)c1OCCCNCc1cc(Cl)c(O)c(Cl)c1` < 5.00

Now the same for `Cc1cccc(C)c1OCCCNCc1cccnc1` 4.50

Now the same for `Cc1cccc(C)c1OCCCNCc1ccc(C(F)(F)F)cc1` 5.16

Now the same for `Cc1cccc(C)c1OCCCNCc1ccc(C#N)cc1` 5.25

Now the same for `Cc1cccc(C)c1OCCCNCc1ccccc1C(F)(F)F` 5.09

====

I'd appreciate it if you could supply IC50 values for the items below.
target: hNav1.2 (Homo sapiens (Human)); assay: Automated patch clamp (IonWorks Quattro) block of hNav1.2 channels in CHO cells; format: cell-based; conditions: 10 Hz frequency-dependent block (TP11), read-out: IC50 Nav1.2 10 Hz block
Kindly provide the numeric value in µM only, without the unit symbol.

Need IC50, item `Cc1cccc(C)c1OCCCNCc1nn(Cc2ccccc2)c2ccccc12` 2.3

Now the same for `Cc1cccc(C)c1OCCCNCc1cccnc1` 13.1

Now the same for `COc1cccc(CNCCCOc2c(C)cccc2C)c1` 1.5

Now the same for `Cc1cccc(C)c1OCCCNC(c1ccccn1)c1ccccn1` 1.2

Now the same for `Cc1cccc(C)c1OCCCNCc1cccc(-c2ccccc2F)c1` 4.5

Now the same for `Cc1cccc(C)c1OCCCNC(c1ccccc1)c1ccccc1` 32.2

====

I'd appreciate it if you could supply IC50 values for the items below.
Target: hNav1.2 (Homo sapiens (Human), UniProt Q99250)
Sequence (Q99250 whole entry): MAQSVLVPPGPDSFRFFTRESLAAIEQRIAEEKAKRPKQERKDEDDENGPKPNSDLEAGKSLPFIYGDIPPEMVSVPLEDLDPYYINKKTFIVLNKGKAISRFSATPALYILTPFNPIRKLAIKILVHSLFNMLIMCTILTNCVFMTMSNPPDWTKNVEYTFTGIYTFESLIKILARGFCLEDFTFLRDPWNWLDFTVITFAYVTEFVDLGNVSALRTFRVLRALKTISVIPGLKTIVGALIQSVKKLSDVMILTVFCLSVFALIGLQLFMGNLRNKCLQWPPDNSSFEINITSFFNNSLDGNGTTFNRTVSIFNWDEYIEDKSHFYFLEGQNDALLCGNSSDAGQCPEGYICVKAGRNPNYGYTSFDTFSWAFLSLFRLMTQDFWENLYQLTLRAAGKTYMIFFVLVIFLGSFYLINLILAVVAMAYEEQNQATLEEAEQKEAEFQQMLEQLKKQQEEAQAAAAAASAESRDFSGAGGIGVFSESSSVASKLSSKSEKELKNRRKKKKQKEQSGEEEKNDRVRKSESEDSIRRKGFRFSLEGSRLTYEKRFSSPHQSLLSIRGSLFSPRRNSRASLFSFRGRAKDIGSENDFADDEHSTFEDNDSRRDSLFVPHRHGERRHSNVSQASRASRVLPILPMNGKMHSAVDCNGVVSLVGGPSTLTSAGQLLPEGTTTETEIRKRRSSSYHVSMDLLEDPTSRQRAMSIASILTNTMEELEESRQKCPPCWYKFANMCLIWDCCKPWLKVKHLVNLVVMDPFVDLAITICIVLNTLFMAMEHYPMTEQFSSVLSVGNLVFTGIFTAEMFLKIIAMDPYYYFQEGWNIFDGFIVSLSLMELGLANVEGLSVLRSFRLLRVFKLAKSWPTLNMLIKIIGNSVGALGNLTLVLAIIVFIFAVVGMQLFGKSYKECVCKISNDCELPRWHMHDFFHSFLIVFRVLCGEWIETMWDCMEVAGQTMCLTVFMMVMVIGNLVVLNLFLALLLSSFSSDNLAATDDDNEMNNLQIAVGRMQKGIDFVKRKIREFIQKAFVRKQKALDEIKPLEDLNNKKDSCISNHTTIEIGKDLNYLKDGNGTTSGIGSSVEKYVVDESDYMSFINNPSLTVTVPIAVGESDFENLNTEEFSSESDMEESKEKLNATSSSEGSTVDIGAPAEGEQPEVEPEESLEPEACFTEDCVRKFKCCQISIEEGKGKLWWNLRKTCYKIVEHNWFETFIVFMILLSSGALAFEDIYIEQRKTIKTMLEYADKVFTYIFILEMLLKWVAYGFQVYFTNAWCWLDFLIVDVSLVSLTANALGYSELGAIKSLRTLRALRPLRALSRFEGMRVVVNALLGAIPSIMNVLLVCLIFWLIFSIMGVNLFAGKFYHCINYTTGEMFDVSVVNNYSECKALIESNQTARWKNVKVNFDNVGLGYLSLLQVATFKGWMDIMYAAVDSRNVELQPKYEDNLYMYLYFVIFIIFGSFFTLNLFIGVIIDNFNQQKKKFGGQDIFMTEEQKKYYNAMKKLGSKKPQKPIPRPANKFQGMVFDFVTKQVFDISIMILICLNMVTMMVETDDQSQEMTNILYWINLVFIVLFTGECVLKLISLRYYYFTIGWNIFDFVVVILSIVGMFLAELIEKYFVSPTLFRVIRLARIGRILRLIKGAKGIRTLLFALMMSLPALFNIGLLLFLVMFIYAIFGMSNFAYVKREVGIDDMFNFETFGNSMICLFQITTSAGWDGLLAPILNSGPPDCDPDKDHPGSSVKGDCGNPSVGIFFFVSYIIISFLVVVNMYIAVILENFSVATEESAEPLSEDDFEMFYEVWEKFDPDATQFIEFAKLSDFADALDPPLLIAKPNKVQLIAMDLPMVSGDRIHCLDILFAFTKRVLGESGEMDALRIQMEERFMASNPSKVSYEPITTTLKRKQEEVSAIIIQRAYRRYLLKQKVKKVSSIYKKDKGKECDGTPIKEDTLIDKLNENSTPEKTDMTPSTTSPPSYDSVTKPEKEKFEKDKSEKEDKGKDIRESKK
Test: Automated patch clamp (IonWorks Quattro) block of hNav1.2 channels in CHO cells
Format: cell-based
Details: Tonic block (TP1), read-out: IC50 Nav1.2 Tonic block
Description: FIG. 1 depicts the voltage sequence used to measure inhibitory activity of compounds as described in Example 3. An automated patch clamp screening assay was used to measure the inhibitory effect (potency) of compounds in three conformational states of the sodium channel: (1) the tonic state (TP1); (2) the frequency-dependent (10 Hz) state (TP11) and (3) the inactivated state (TP12). […]

Need IC50, item Cc1cccc(C)c1OCCCNCc1cccnc1 [Compound 528] 34.4 µM

Now the same for COc1cccc(CNCCCOc2c(C)cccc2C)c1 [Compound 525] 4.8 µM

Now the same for Cc1cccc(C)c1OCCCNCc1ccc(O)cc1 [Compound 550] > 10 µM

Now the same for Cc1cccc(C)c1OCCCNCc1ccc(S(N)(=O)=O)cc1 [Compound 532] > 10 µM

Now the same for Cc1cccc(C)c1OCCCNCc1ccc(-c2ccccc2)cc1 [Compound 522] > 1000 µM

Now the same for Cc1cccc(C)c1OCCCNCc1cc(Cl)c(O)c(Cl)c1 [Compound 504] > 10 µM

Now the same for Cc1nn(C)c(C)c1OCCCNC(c1ccccn1)c1ccccn1 [Compound 644] > 10 µM

Now the same for Cc1cccc(C)c1OCCCNCc1ccccc1F [Compound 551] ~10.1 µM

Now the same for Cc1cccc(C)c1OCCCNCc1cccc(-c2cncnc2)c1 [Compound 558] 1.2 µM

Now the same for Cc1cccc(C)c1OCCCNCc1ccccc1C(F)(F)F [Compound 534] > 10 µM

Now the same for Cc1cccc(C)c1OCCCNCc1noc(C(C)C)n1 [Compound 538] > 10 µM

Now the same for Cc1cccc(C)c1OCCCNC(c1ccccn1)c1ccccn1 [Compound 562] > 30 µM

Now the same for Cc1cccc(C)c1OCCCNCc1cccc(F)c1 [Compound 552] 9.5 µM

Now the same for Cc1nn(C)c(C)c1OCCCNCc1cccc(-c2cncnc2)c1 [Compound 645] > 10 µM

Now the same for COc1ccccc1CNCCCOc1c(C)cccc1C [Compound 530] 7.8 µM

Now the same for Cc1cccc(C)c1OCCCNCc1ccccc1 [Compound 518] 3.3 µM

Now the same for CC(=O)Nc1ccc(CNCCCOc2c(C)cccc2C)cc1 [Compound 542] > 10 µM

Now the same for Cc1cccc(C)c1OCCCNCc1ccccc1-c1ccccc1 [Compound 536] > 30 µM

Now the same for Cc1cccc(C)c1OCCCNCc1ccc(C#N)cc1 [Compound 519] > 10 µM

Now the same for Cc1cccc(C)c1OCCCNCc1nn(Cc2ccccc2)c2ccccc12 [Compound 540] 23.5 µM

Now the same for Cc1cccc(C)c1OCCCNCc1cccc(-c2ccccc2)c1 [Compound 535] 66.5 µM

Now the same for Cc1cccc(C)c1OCCCNCc1c2ccccc2nn1Cc1ccccc1 [Compound 555] > 10 µM

Now the same for Cc1cccc(C)c1OCCCNC(c1ccccc1)c1ccccc1 [Compound 554] > 1000 µM

Now the same for Cc1cccc(C)c1OCCCNCc1cccc(-c2ccc(F)cc2)c1 [Compound 557] > 30 µM

Now the same for COc1ccc(CNCCCOc2c(C)cccc2C)cc1 [Compound 520] 6.3 µM

Now the same for Cc1cccc(C)c1OCCCNCc1ccc(C(F)(F)F)cc1 [Compound 526] > 10 µM

Now the same for Cc1cccc(C)c1OCCCNC(C)c1ccccc1 (stereo not shown) [Compound 553] 3.6 µM

Now the same for Cc1n[nH]c(C)c1OCCCNCc1cccc(-c2cncnc2)c1 [Compound 643] > 10 µM

Now the same for Cc1n[nH]c(C)c1OCCCNC(c1ccccn1)c1ccccn1 [Compound 642] > 10 µM

Now the same for Cc1cccc(C)c1OCCCNCc1cc(C(C)(C)C)cc(C(C)(C)C)c1 [Compound 559] > 10 µM

Now the same for Cc1cccc(C)c1OCCCNCc1cccc(-c2ccccc2F)c1 [Compound 556] > 30 µM

Now the same for Cc1cccc(C)c1OCCCNCc1ccccn1 [Compound 523] > 10 µM

Now the same for Cc1cccc(C)c1OCCCNCc1ccc(OC(F)(F)F)cc1 [Compound 531] 12.5 µM

Now the same for Cc1cccc(C)c1OCCCNCc1ccc(F)cc1 [Compound 521] ~10.2 µM
